- measurement-protocol: Quantitative High-Throughput drug screen in 47 multiple myeloma cell lines against the NCATS MIPE library collection: KHM11_PLB cell viability assay (AID 1918962); further: nearly all actives have a fitted effect of over 35% in size
- run-conditions: KHM11 myeloma cell viability, CellTiter-Glo ATP luminescence, 48 h; series mostly up to 45.8 µM
Records with an inconclusive call do not appear. Activity calls are given as the source filed them. The call rests on the fitted dose curve; in most records, active means well fitted cell-killing curve with a large enough effect; inconclusive means small, poorly fitted or top-dose-only effect, or effect the other way; inactive means no such curve, though single readings can be large or run the other way.
Classes to choose from: class 1 (active), class 0 (inactive)

[
  {
    "molecule": "COc1cc(OC)c(C(=O)CCCN2CCCC2)c(OC)c1",
    "answer-label": "class 0"
  },
  {
    "molecule": "NC(=NCc1ccccc1)NC(=O)c1nc(Cl)c(N)nc1N",
    "answer-label": "class 1"
  },
  {
    "molecule": "O=C(c1ccccc1)c1ccc2n1CCC2C(=O)O (centres undefined)",
    "answer-label": "class 1"
  },
  {
    "molecule": "c1cnc2cc3c(cc2n1)C1CNCC3C1",
    "answer-label": "class 0"
  },
  {
    "molecule": "CC(C)C[C@H](NC(=O)[C@H](Cc1ccccc1)NC(=O)c1cnccn1)B(O)O",
    "answer-label": "class 1"
  }
]

Query block: Can you look up the reported call for CCN(CC)CCOc1ccc(Cc2ccccc2)cc1 for me?
Result block: class 0

Query block: Can you look up the reported call for O=Nc1c(-c2c(O)[nH]c3cc(Br)ccc23)[nH]c2ccccc12 for me?
Result block: class 1

Query block: Can you look up the reported call for COC1=C(OC)C(=O)C(CCCCCCCCCCO)=C(C)C1=O for me?
Result block: class 1

Query block: Can you look up the reported call for C=CCc1cc(OC)c(O)c(C(=O)NCCO)c1 for me?
Result block: class 0

Query block: Can you look up the reported call for S=c1nc[nH]c2nc[nH]c12 for me?
Result block: class 0

Query block: Can you look up the reported call for CCN(CC)CCOc1ccc(Nc2ncc3cc(-c4c(Cl)cccc4Cl)c(=O)n(C)c3n2)cc1 for me?
Result block: class 1

Query block: Can you look up the reported call for O=c1c(O)c(-c2cc(O)c(O)c(O)c2)oc2cc(O)cc(O)c12 for me?
Result block: class 0

Query block: Can you look up the reported call for CN(C)C(=O)[C@H](O)[C@H](Cc1ccccc1)NC(=O)c1cc2cc(Cl)ccc2[nH]1 for me?
Result block: class 0

Query block: Can you look up the reported call for Cc1cc(=O)oc2cc(O)ccc12 for me?
Result block: class 1

Query block: Can you look up the reported call for COc1c2occc2cc2ccc(=O)oc12 for me?
Result block: class 0

Data provenance is PubChem BioAssay (NCATS).
